- Test system: PDPK1
- EXPERIMENTAL_PARAMETERS: concentration: 1 μM, replicates: in singlicate; n = 1;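 further: KINOMEscan kinase panel screen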
Decide by %Inh: equal to or exceeding 5% means 1, less means 0.

Query: Does %Inh meet or surpass 5% for `CCNc1nccc(-c2c(-c3ccc(F)cc3)ncn2C2CCN(C)CC2)n1` ?
Response: 1

Query: Given the entry c1ccc(Oc2ccc(Nc3ccnc4cc(-c5ccc(CN6CCCCC6)o5)ccc34)cc2)nc1 [GW567143] , answer whether its %Inh meets or surpasses 5%.
Response: 0

Query: Given the entry Cl.Cl.NC(CNC(=O)c1cc(Br)c(-c2ccnc3[nH]ccc23)s1)c1ccccc1 (centres unmarked) [GSK1322949] , answer whether its %Inh meets or surpasses 5%.
Response: 1

Query: Confirm if %Inh reported for the compound CC(C)NCC(Cc1ccccc1)NC(=O)c1cc(Br)c(-c2ccnc3[nH]ccc23)s1.Cl.Cl (centres unmarked) [GSK1383281] is 5% or above.
Response: 0

Query: Decide: is the reported value of %Inh for COc1cc(Nc2nccc(N3CCC(NC(=O)Nc4ccc5c(c4)OCO5)C3)n2)cc(OC)c1OC (centres unmarked) [GSK1379766] equal to or greater than 5%?
Response: 0

Query: Threshold query (%Inh >= 5%) on `CN(c1ccc(F)c(NC(=O)c2cccc(OC(C)(C)C#N)c2Cl)c1)c1ccc2nc(NC(=O)C3CC3)sc2n1`
Response: 1

Query: Quick check, %Inh >= 5%? COc1cccc2c(-c3ccncc3)c(-c3ccc(F)cc3)nn12 [GW468513]
Response: 1

* * *

- Tested on: ALK
- EXPERIMENTAL_PARAMETERS: concentration: 1 μM, replicates: in singlicate; n = 1
Returns the class for an entry based on its %Inh. Class ranges: bottom bin = under 20%, middle bin = from 20% up to 40%, top bin = 40% and over

Query: Lab log: COC(=O)Nc1nc2ccc(Oc3ccc(NC(=O)Nc4cc(C(F)(F)F)ccc4F)cc3)cc2[nH]1.Cl [GW654607] — assign %Inh category
Response: bottom bin

Query: Lab log: Cl.Cl.NC(CNC(=O)c1cc(Br)c(-c2ccnc3[nH]ccc23)s1)c1ccccc1 (centres unmarked) [GSK1322949] — assign %Inh category
Response: top bin

Query: Just checking, what class would you give COc1cccc2c(-c3ccncc3)c(-c3ccc(F)cc3)nn12 [GW468513] here?
Response: middle bin

Query: Category lookup for the compound Cc1ccc(C)c(NC(=O)Nc2ccc(C)c(-c3ccc(C(=O)Nc4ccncc4)cc3)c2)c1 [GSK1398473]
Response: middle bin

Query: Record Nc1ncc(-c2cn[nH]c2)c2scc(-c3ccc4c(c3)CCN4C(=O)Cc3ccccc3)c12 [GSK2593067] — which class?
Response: bottom bin

Query: # bin lookup: classify Cc1ccc(NC(=O)c2cccc(N3CCCCC3)c2)cc1-c1ccc(C(=O)NCC2CC2)cc1 [GSK1917008] by its %Inh
Response: bottom bin

Query: Into which bin does this compound go? Fc1cc(Cl)ccc1Nc1ccnc2cc(-c3ccc(CN4CCOCC4)o3)ccc12 [GW560109]
Response: top bin

Query: State the class of the compound shown: CCOc1nccc(-c2c(-c3ccc(F)cc3)ncn2C2CCNCC2)n1 [SB-249175]
Response: top bin

Query: Please classify: COc1cc(Nc2ccnc3cc(-c4ccncc4)ccc23)cc(OC)c1OC.Cl [GW494610]
Response: middle bin

Taken from paper PMC5540273.
